assay: Stability in BALB/C mouse serum measured up to 1440 mins by HPLC analysis; format: ADME, cell-free
Where a SMILES comes first, the peptide text is derived from it.
READOUT_TYPE: half-life (h)
Give bare numbers, in h.

COMPOUND | UNIT_ABBREV | half-life
CC[C@H](C)[C@H](NC(=O)[C@H](CCCNC(=N)N)NC(=O)[C@H](CCCCN)NC(=O)[C@H](CC(C)C)NC(=O)[C@H](CC(C)C)NC(=O)CN)C(=O)N[C@@H](CCCCN)C(=O)N[C@H](C(=O)N[C@@H](CC(C)C)C(=O)N[C@@H](CC(C)C)C(N)=O)[C@@H](C)O [ANOPLIN] (H-GLLKRIKTLL-NH2) | h | 2.24

// query Let me know recorded half-life for NCCCC[C@H](NC(=O)[C@H](CCCCN)NC(=O)[C@H](Cc1c[nH]c2ccccc12)NC(=O)[C@H](CCCCN)NC(=O)[C@H](CCCCN)NC(=O)[C@H](Cc1c[nH]c2ccccc12)NC(=O)[C@H](Cc1c[nH]c2ccccc12)NC(=O)[C@@H](N)CCCCN)C(=O)N[C@@H](Cc1c[nH]c2ccccc12)C(=O)N[C@@H](Cc1c[nH]c2ccccc12)C(N)=O (H-KWWKKWKKWW-NH2) , thanks.
// result 0.835

* * *

assay: Selectivity ratio of MHC10 for BALB/C mouse erythrocytes to MIC for bacteria; format: toxicity
Where a SMILES comes first, the peptide text is derived from it.
READOUT_TYPE: selectivity ratio
Answers are plain numbers.

In the examples that follow, each entry is paired with its recorded selectivity ratio.
MOLECULE | selectivity ratio
CC[C@H](C)[C@H](NC(=O)CN)C(=O)N[C@@H](CCCNC(=N)N)C(=O)N[C@@H](Cc1c[nH]c2ccccc12)C(=O)N[C@@H](CCCCN)C(=O)N[C@@H](Cc1ccccc1)C(=O)N[C@@H](Cc1c[nH]c2ccccc12)C(=O)N[C@@H](CCCCN)C(=O)N[C@@H](Cc1ccccc1)C(=O)N[C@H](C(N)=O)[C@@H](C)O (H-GIRWKFWKFT-NH2) | 8.72
CC[C@H](C)[C@H](NC(=O)[C@H](CCCNC(=N)N)NC(=O)[C@H](CCCCN)NC(=O)[C@H](Cc1ccccc1)NC(=O)[C@H](Cc1c[nH]c2ccccc12)NC(=O)CN)C(=O)N[C@@H](CCCCN)C(=O)N[C@H](C(=O)N[C@@H](Cc1ccccc1)C(=O)N[C@@H](Cc1c[nH]c2ccccc12)C(N)=O)[C@@H](C)O (H-GWFKRIKTFW-NH2) | 24
NCCCC[C@H](NC(=O)[C@H](CCCCN)NC(=O)[C@H](Cc1c[nH]c2ccccc12)NC(=O)[C@H](CCCCN)NC(=O)[C@H](CCCCN)NC(=O)[C@H](Cc1c[nH]c2ccccc12)NC(=O)[C@H](Cc1c[nH]c2ccccc12)NC(=O)[C@@H](N)CCCCN)C(=O)N[C@@H](Cc1c[nH]c2ccccc12)C(=O)N[C@@H](Cc1c[nH]c2ccccc12)C(N)=O (H-KWWKKWKKWW-NH2) | 28.2
C[C@@H](O)[C@H](NC(=O)[C@H](CCCCN)NC(=O)[C@H](Cc1c[nH]c2ccccc12)NC(=O)[C@H](CCCNC(=N)N)NC(=O)[C@H](CCCCN)NC(=O)[C@H](Cc1ccccc1)NC(=O)[C@H](Cc1ccccc1)NC(=O)CN)C(=O)N[C@@H](Cc1ccccc1)C(=O)N[C@@H](Cc1ccccc1)C(N)=O (H-GFFKRWKTFF-NH2) | 26.9

For the 2 molecules below, give their selectivity ratio values.
1. CC(C)C[C@H](NC(=O)[C@H](C)NC(=O)[C@@H](NC(=O)[C@H](CCCCN)NC(=O)[C@H](C)NC(=O)[C@H](CCCNC(=N)N)NC(=O)[C@H](CCCCN)NC(=O)[C@H](C)NC(=O)[C@H](C)NC(=O)CN)[C@@H](C)O)C(N)=O (H-GAAKRAKTAL-NH2)
2. CC[C@H](C)[C@H](NC(=O)[C@H](CCCNC(=N)N)NC(=O)[C@H](CCCCN)NC(=O)[C@H](Cc1ccccc1)NC(=O)[C@H](Cc1c[nH]c2ccccc12)NC(=O)[C@@H](N)CCCCN)C(=O)N[C@@H](CCCCN)C(=O)N[C@H](C(=O)N[C@@H](Cc1ccccc1)C(=O)N[C@@H](Cc1c[nH]c2ccccc12)C(N)=O)[C@@H](C)O (H-KWFKRIKTFW-NH2)

// result
[1, 16]
